test system: L6; assay: Cytotoxicity against L6 cells; format: cell-based; conditions: Rattus norvegicus
Field: IC50. Provide a value for each of the compounds that follow.
Give bare numbers, in µM.

Solved cases (3 shown):
OC1CC2(N3CCCCC3)CC(c3ccc(Cl)cc3)C1C(c1ccc(Cl)cc1)C2 (centres undefined) : 11.6
OC(c1cc(C(F)(F)F)nc2c(C(F)(F)F)cccc12)C1CCCCN1 (centres undefined) [MEFLOQUINE] : 11.4
OC1CC2(N3CCCC3)CC(c3ccccc3)C1C(c1ccccc1)C2 (centres undefined) : 26.8

## Task Determine from records and report IC50 for COc1ccc(C2CC3(N(C)C)CC(=O)C2C(c2ccc(OC)cc2)C3)cc1 (centres undefined)
## Result 52.4
